Biological target: CCR3 (Homo sapiens)
Construct: Eosinophils separated from peripheral blood of healthy subject; endogenous in cells
Sequence (P51677 1-355): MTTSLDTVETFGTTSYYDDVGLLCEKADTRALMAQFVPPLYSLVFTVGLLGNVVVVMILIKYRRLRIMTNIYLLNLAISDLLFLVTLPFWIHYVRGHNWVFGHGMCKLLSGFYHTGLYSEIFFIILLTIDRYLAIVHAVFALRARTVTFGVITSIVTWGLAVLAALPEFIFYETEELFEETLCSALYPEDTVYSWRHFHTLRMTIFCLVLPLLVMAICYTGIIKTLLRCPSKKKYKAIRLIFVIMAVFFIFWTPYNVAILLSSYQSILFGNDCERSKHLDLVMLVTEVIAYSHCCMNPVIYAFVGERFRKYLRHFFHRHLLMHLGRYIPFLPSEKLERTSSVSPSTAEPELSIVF
Assay: Effect on intracellular calcium concentration in eosinophils upon CCL11 stimulation
Conditions: peripheral blood eosinophils of healthy subject, agonist CCL11 1.0 nmol/L, compound 3 min before stimulation, Fura-2 AM; read-out: IC50 (50% suppression of the increase in the intracellular calcium concentration)
Counter-ions that a name gives are not always drawn.
Recorded IC50 values for a group of molecules are listed next.
Please respond with the number in nM and leave the unit unwritten.

Value wanted: IC50 (CCR3 (Homo sapiens)) of entry `NC(=O)Cc1cncc(SCC(=O)NC[C@H]2CN(Cc3ccc(Cl)c(Cl)c3)CCO2)n1`
0.1

Value wanted: IC50 (CCR3 (Homo sapiens)) of entry Cc1nc(-c2csc(SCC(=O)NC[C@H]3CN(Cc4ccc(Cl)c(Cl)c4)CCO3)n2)no1 [Example 23, hydrochloride]
0.8

Value wanted: IC50 (CCR3 (Homo sapiens)) of entry `Cc1sc(SCC(=O)NC[C@H]2CN(Cc3ccc(Cl)c(Cl)c3)CCO2)nc1C(=O)O`
22.3

---

Recorded pIC50 values for a group of molecules are listed next.
Biological target: human eosinophils
Experiment: Binding inhibitory test of chemokine ([125I]-eotaxin) to human eosinophils
Details: 50 pmol/L [125I]-eotaxin, 2x10^5 eosinophils, 25°C, 1 hr; read-out: IC50 (concentration of test compound necessary for decreasing binding of [125I]-eotaxin to human eosinophils by 50%)
Schema: pIC50 number; meaning minus log10 of the concentration expressed in molar units.

Example molecules with recorded pIC50:
In [3]: df
Out[3]:
                                 cpd_smiles    subject_of_test  endpoint_result
0  O=C(O)Cc1csc(SCC(=O)NC[C@H]2CN(Cc3ccc(Cl)c(Cl)c3)CCO2)n1  human eosinophils             8.62
1  NC(=O)CNC(=O)c1csc(SCC(=O)NC[C@H]2CN(Cc3ccc(Cl)c(Cl)c3)CCO2)n1  human eosinophils             9.05
2  O=C(CSc1ccc(C(=O)O)cc1)NC[C@H]1CN(Cc2ccc(Cl)c(Cl)c2)CCO1  human eosinophils             7.46

Please find the next molecule below.
Fill in: pIC50 of `Nc1ccc2c(c1)-c1nc(SCC(=O)NC[C@H]3CN(Cc4ccc(Cl)c(Cl)c4)CCO3)sc1C2` is ___
8.64

---

Tested on: mouse ovalbumin (OVA) induced allergic and biphasic ear edema
Test: Antigen (OVA) induced allergic and biphasic ear edema model
Format: in vivo
Conditions: male BALB/c mice, oral once a day from 2 days before induction, 3 or 10 mg/kg tested, ear thickness 1 hr after OVA, read-out: Dose that showed a significant suppressive action vs vehicle, Immediate phase
Recorded minimal effective dose values for a group of molecules are listed next.
Please respond with the number in mg/kg and leave the unit unwritten.

                                   molecule  endpoint_result
0  Nc1nnc(SCC(=O)NC[C@H]2CN(Cc3cccc(Cl)c3)CCO2)s1               10
1  O=C(CSc1ccc(=O)[nH]n1)NC[C@H]1CN(Cc2ccc(F)c(F)c2)CCO1               10
2  CC(=O)Nc1nnc(SCC(=O)NC[C@H]2CN(Cc3ccc(Cl)c(Cl)c3)CCO2)s1                3

Value wanted: minimal effective dose (mouse ovalbumin (OVA) induced allergic and biphasic ear edema) of entry `O=C(CSc1nc2cccnc2s1)NC[C@H]1CN(Cc2ccc(Cl)c(Cl)c2)CCO1`
10

Value wanted: minimal effective dose (mouse ovalbumin (OVA) induced allergic and biphasic ear edema) of entry `Nc1nnc(SCC(=O)NC[C@H]2CN(Cc3ccc(F)c(F)c3)CCO2)s1`
10

Value wanted: minimal effective dose (mouse ovalbumin (OVA) induced allergic and biphasic ear edema) of entry `NC(=O)CNC(=O)c1ccc(SCC(=O)NC[C@H]2CN(Cc3ccc(Cl)c(Cl)c3)CCO2)cc1`
3

Value wanted: minimal effective dose (mouse ovalbumin (OVA) induced allergic and biphasic ear edema) of entry `NC(=O)CNC(=O)c1csc(SCC(=O)NC[C@H]2CN(Cc3ccc(Cl)c(Cl)c3)CCO2)n1`
3
